# Experimental Context: buffer; pH 7.4; 200.0 µM
Test Readout: solubility kinetic (µg/mL)
Answers are plain numbers, in µg/mL.

In the examples that follow, each entry is paired with its recorded solubility kinetic.
Return value of solubility kinetic for input CCc1ccc(Nc2c([N+](=O)[O-])c(=O)oc3ccccc23)cc1 , no commentary. 1.4

Return value of solubility kinetic for input Nc1cc(=O)[nH]c(SCC(=O)Nc2cc([N+](=O)[O-])ccc2Cl)n1 , no commentary. 4.4

Return value of solubility kinetic for input C=CCn1c(C)cc(C(=O)Cn2c(C(C)O)nc3ccccc32)c1C (stereo not given) , no commentary. 29.4

Items follow; give solubility kinetic for each.
1. CCN(C(=O)CSc1nc2ccccc2c(=O)n1-c1cccc(C)c1)C1CCS(=O)(=O)C1 (stereo not given)
2. CCOc1ccc(NC(=O)CN2C(=O)C(C)SC(C)C2=O)cc1 (stereo not given)
3. Cc1cccc(NC(=O)CC(=O)Nc2cccc(C)c2)c1
4. CC(C)c1ccc2nc(SCC(=O)NCC3CCCO3)c(C#N)cc2c1 (stereo not given)
5. CC1(C)C2CCC1(CS(=O)(=O)Nc1ccccc1)C(=O)C2 (stereo not given)
6. Cc1ccc(OCCCC(=O)NC2CCCCC2)cc1

1. 2.8
2. 34.8
3. 5.7
4. 2.4
5. 42.8
6. 15.7
